study-target: hASIC1a (Homo sapiens, UniProt P78348)
Sequence (P78348 whole entry): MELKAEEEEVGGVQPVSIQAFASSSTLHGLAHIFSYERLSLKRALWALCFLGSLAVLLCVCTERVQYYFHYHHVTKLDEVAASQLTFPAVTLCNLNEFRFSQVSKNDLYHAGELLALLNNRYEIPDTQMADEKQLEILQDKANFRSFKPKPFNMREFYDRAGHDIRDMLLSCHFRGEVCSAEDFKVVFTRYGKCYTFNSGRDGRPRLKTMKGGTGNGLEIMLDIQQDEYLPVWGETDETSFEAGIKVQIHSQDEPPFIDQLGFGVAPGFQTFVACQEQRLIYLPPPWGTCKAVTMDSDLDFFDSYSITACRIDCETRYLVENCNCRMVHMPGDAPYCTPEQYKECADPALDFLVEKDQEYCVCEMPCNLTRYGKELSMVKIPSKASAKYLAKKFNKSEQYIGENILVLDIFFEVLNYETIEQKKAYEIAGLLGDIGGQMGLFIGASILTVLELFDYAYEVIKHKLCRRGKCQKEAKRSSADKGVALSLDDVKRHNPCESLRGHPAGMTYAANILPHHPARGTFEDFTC
measurement-description: QPatch 48 APC, CHO hASIC1a, multi-hole (10 hole X-plate) recordings
Format: cell-based
Design: host or cells: CHO (tetracycline-inducible)
Bridges are numbered along the chain shown (N, C = ends). Where no end group is shown, it is not given here.
measure: pIC50
Please report pIC50 as the negative decimal logarithm of the molar concentration, giving only the number.

Given LKCYQHGKVVTCHRDMKFCYHNIGMPFRNLKLILQGCSSSCSETENNKCCSTDRCNK (disulfide 3-19, 12-37, 41-49, 50-55) [Mambalgin-3] , respond with its pIC50.
6.80

Source listed as paper PMC9629855.
